# MEASURED TARGET: T1, GRIP1_5, Q9Y3R0
# T1 sequence (Q9Y3R0 568-668, limits assumed, looked up): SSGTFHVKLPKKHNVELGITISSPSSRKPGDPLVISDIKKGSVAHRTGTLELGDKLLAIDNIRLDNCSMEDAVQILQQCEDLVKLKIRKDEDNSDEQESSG
# METHOD DESCRIPTION: holdup assay
# Parameters: key: below the threshold = too weak to quantify, mostly under pKd 3.1 to 4
# SETTINGS: plain residues with an end cap or a label only (N-terminal biotin on a linker: ado-ado)
OUTCOME MEASURE: pKd

HLRARKSEWV [GJD4, Q96KN9]    below the threshold
FNSYSLTGYV [CLDN2, P57739]    below the threshold
QHKTQLQTLI [BPIFA2, Q96DR5]    below the threshold
